- TARGET ENTITY: JAK2/JAK1 (Homo sapiens, UniProt O60674+P23458)
- Sequence (P23458 whole entry): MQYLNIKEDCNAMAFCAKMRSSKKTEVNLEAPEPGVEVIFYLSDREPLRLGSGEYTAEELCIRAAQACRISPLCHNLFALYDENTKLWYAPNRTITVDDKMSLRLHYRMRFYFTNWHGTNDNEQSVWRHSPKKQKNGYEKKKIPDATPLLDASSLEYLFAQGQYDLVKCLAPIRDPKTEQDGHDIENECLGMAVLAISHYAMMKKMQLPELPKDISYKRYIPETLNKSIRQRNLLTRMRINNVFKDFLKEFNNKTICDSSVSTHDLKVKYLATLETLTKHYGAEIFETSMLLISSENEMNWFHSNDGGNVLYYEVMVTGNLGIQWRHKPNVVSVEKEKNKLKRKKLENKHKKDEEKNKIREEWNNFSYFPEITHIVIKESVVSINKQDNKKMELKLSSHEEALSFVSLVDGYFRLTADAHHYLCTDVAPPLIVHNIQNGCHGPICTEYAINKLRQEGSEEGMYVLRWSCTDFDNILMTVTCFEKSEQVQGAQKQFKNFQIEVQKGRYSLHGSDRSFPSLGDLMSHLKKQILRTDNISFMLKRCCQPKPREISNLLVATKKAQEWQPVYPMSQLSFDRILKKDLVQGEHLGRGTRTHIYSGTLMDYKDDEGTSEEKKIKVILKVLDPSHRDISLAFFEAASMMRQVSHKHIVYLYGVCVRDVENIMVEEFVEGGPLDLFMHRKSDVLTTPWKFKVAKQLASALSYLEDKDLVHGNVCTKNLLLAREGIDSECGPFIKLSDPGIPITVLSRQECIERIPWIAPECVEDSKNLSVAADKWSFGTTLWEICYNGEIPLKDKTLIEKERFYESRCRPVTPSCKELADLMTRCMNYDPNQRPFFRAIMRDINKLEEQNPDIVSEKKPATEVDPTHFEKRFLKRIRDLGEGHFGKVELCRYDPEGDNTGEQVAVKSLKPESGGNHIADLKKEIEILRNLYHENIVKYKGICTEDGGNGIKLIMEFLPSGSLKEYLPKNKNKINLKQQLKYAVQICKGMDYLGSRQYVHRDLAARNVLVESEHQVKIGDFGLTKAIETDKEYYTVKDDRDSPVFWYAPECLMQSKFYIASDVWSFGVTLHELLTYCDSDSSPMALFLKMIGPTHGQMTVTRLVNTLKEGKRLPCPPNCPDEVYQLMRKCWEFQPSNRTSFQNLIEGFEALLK
- Sequence (O60674 whole entry): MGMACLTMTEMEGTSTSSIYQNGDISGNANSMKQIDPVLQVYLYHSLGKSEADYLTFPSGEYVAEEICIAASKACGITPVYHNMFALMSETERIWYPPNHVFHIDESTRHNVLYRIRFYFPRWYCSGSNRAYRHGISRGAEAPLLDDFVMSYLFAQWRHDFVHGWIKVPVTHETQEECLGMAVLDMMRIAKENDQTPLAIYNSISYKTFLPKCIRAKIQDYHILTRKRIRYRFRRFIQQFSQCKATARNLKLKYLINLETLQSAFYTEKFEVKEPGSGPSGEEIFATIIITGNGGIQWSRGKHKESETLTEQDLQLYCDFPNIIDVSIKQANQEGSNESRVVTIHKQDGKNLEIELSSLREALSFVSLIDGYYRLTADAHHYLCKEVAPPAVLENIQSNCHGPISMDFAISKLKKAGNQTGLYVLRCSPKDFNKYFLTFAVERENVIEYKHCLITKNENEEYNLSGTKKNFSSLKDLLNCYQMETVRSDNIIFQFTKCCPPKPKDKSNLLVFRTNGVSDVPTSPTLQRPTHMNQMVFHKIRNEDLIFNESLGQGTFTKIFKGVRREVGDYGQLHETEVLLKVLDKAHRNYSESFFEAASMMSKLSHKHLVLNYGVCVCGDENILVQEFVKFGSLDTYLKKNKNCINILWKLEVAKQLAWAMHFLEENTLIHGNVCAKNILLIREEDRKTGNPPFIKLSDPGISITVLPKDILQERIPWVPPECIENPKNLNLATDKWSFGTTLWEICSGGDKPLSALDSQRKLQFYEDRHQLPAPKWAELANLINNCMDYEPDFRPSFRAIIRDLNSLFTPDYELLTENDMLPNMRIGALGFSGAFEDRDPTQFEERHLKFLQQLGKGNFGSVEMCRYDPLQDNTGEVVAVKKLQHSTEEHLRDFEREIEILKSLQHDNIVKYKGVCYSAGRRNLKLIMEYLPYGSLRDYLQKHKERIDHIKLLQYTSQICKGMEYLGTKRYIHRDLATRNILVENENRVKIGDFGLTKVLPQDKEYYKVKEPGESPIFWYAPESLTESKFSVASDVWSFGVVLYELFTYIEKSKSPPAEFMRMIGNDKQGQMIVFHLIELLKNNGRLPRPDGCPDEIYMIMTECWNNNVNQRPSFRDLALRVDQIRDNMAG
- ASSAY REMARKS: Inhibition of JAK1/JAK2 (unknown origin) in GM-CSF stimulated cells by cell based assay
Items are presented alongside their recorded IC50.
MEASUREMENT KIND: IC50

| SMILES STR | TARGET ENTITY | MEASUREMENT KIND | REPORTED VALUE |
| --- | --- | --- | --- |
| CCNC(=O)c1cnc(Nc2ccc(F)cn2)cc1Nc1ccccc1C(N)=O | JAK2/JAK1 (Homo sapiens, UniProt O60674+P23458) | IC50 | > 12.5 µM |
| CNC(=O)c1cnc(Nc2ccc(F)cn2)cc1Nc1ccccc1C(N)=O | JAK2/JAK1 (Homo sapiens, UniProt O60674+P23458) | IC50 | > 12.5 µM |
| CNC(=O)c1cnc(Nc2ccc(F)cn2)cc1Nc1ccccc1S(C)(=O)=O | JAK2/JAK1 (Homo sapiens, UniProt O60674+P23458) | IC50 | > 12.5 µM |
| CS(=O)(=O)c1ccccc1Nc1cc(Nc2ccc(F)cn2)ncc1C(N)=O | JAK2/JAK1 (Homo sapiens, UniProt O60674+P23458) | IC50 | 0.26 µM |
| NC(=O)c1ccccc1Nc1cc(Nc2ccc(F)cn2)ncc1C(=O)NC1CC1 | JAK2/JAK1 (Homo sapiens, UniProt O60674+P23458) | IC50 | > 12.5 µM |
| NC(=O)c1ccccc1Nc1cc(Nc2ccc(F)cn2)ncc1C(N)=O | JAK2/JAK1 (Homo sapiens, UniProt O60674+P23458) | IC50 | 0.21 µM |
| CN(C)C(=O)c1cnc(Nc2ccc(F)cn2)cc1Nc1ccccc1C(N)=O | JAK2/JAK1 (Homo sapiens, UniProt O60674+P23458) | IC50 | > 12.5 µM |
| [2H]C([2H])([2H])NC(=O)c1cnc(Nc2ccc(F)cn2)cc1Nc1ccccc1S(C)(=O)=O | JAK2/JAK1 (Homo sapiens, UniProt O60674+P23458) | IC50 | > 12.5 µM |

====

- ASSAY REMARKS: Cmax in Balb/c mouse assessed as 6-((5-Fluoropyridin-2-yl)amino)-4-((2-(methylsulfonyl)phenyl)amino)nicotinamide level at 10 mg/kg, po after 0.05 hrs
- Assay type: ADME, organism-based
- Design: dose 10 mg/kg, route oral
- RUN PARAMETERS: in vivo
Items are presented alongside their recorded Cmax.

| SMILES STR | Cmax |
| --- | --- |
| CNC(=O)c1cnc(Nc2ccc(F)cn2)cc1Nc1ccccc1S(C)(=O)=O | 9.8 nM |
| [2H]C([2H])([2H])NC(=O)c1cnc(Nc2ccc(F)cn2)cc1Nc1ccccc1S(C)(=O)=O | 4.9 nM |

====

- ASSAY REMARKS: Cmax in Balb/c mouse assessed as 6-((5-Fluoropyridin-2-yl)amino)-4-((2-(methylsulfonyl)phenyl)amino)nicotinamide level at 3 mg/kg, iv after 1 hr
- Format: ADME, organism-based
- Set-up: dose 3 mg/kg, route intravenous
- RUN PARAMETERS: in vivo
Items are presented alongside their recorded Cmax.

| SMILES STR | Cmax / µM |
| --- | --- |
| [2H]C([2H])([2H])NC(=O)c1cnc(Nc2ccc(F)cn2)cc1Nc1ccccc1S(C)(=O)=O | 0.0049 |
| CNC(=O)c1cnc(Nc2ccc(F)cn2)cc1Nc1ccccc1S(C)(=O)=O | 0.084 |
